We begin with a simple list: items and their reported Emax.
Target: human MC4R (Homo sapiens, UniProt P32245)
Construct: host or cells: HEK-293 cells stably expressing the GScAMP22F split-luciferase cAMP sensor and hMC4R, G418 selection
Sequence (P32245 whole entry): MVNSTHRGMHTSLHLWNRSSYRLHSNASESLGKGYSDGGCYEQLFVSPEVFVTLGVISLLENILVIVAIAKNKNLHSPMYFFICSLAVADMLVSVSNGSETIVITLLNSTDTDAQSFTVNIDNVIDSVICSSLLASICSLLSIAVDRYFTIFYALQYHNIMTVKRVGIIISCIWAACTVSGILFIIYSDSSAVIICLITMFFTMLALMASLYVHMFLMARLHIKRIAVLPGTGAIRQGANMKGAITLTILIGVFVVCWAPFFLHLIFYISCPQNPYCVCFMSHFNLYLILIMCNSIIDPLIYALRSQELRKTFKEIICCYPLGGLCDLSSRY
Assay: split-luciferase cAMP sensor assay, agonist mode (measurement window 1), hMC4R
Type: cell-based
Settings: % maximal activation, agonist mode; read-out: MC4R cAMP % max activation
Positions of bridges follow the written chain, without caps; N, C: chain ends. Non-standard residues stand in square brackets, D forms with d. Residues, ends and D or L forms follow the SMILES beside them. d2Nal = N[C@H](Cc1ccc2ccccc2c1)C(=O)O; Cit = NC(=O)NCCC[C@H](N)C(=O)O; NMeA = CN[C@@H](C)C(=O)O; Aib = CC(C)(N)C(=O)O
Value and unit, in that order.

Input: Need Emax of CC(=O)N[C@@H](CCCNC(=N)N)C(=O)N[C@H]1CSSC[C@@H](C(N)=O)NC(=O)[C@@H](Cc2c[nH]c3ccccc23)NC(=O)[C@H](CCCNC(=N)N)NC(=O)[C@@H](Cc2ccccc2)NC(=O)[C@H](CCCNC(=N)N)NC(=O)[C@H](C)N(C)C1=O [CTX-1269] (Ac-RC[NMeA]R[dF]R[dW]C-NH2; disulfide 2-8 (inferred)) , thanks.
Output: 92%

Input: Need Emax of CC(=O)N[C@H]1CSSC[C@@H](C(N)=O)NC(=O)[C@H](Cc2ccccc2)NC(=O)[C@H](CCCNC(=N)N)NC(=O)[C@@H](Cc2ccccc2)NC(=O)[C@H](CCCNC(=N)N)NC(=O)C(C)(C)NC1=O [CTX-1635, cyclo(Cys-Aib-Arg-D-Phe-Arg-Phe-Cys)] (Ac-C[Aib]R[dF]RFC-NH2; disulfide 1-7 (inferred)) , thanks.
Output: 112%

Input: Need Emax of CC(=O)N[C@@H](CCCNC(=N)N)C(=O)N[C@H]1CSSC[C@@H](C(N)=O)NC(=O)[C@@H](Cc2ccc3ccccc3c2)NC(=O)[C@H](CCCNC(=N)N)NC(=O)[C@@H](Cc2ccccc2)NC(=O)[C@H](CCCNC(=N)N)NC(=O)[C@@H](C)NC1=O [CTX-1264] (Ac-RC[dA]R[dF]R[d2Nal]C-NH2; disulfide 2-8 (inferred)) , thanks.
Output: 80%

Input: Need Emax of CC(=O)N[C@H]1CSSC[C@@H](C(N)=O)NC(=O)[C@H](Cc2c[nH]c3ccccc23)NC(=O)[C@H](CCCNC(=N)N)NC(=O)[C@@H](Cc2ccccc2)NC(=O)[C@H](CCCNC(=N)N)NC(=O)C(C)(C)NC1=O [CTX-1632, cyclo(Cys-Aib-Arg-D-Phe-Arg-Trp-Cys)] (Ac-C[Aib]R[dF]RWC-NH2; disulfide 1-7) , thanks.
Output: 105%

Input: Need Emax of CC(=O)N[C@@H](CCCNC(=N)N)C(=O)N[C@H]1CSSC[C@@H](C(N)=O)NC(=O)[C@H](Cc2c[nH]c3ccccc23)NC(=O)[C@H](CCCNC(=N)N)NC(=O)[C@H](Cc2ccccc2)NC(=O)[C@H](Cc2c[nH]cn2)NC(=O)[C@@H](C)NC1=O [CTX-1213, Arg-cyclo(Cys-D-Ala-His-Phe-Arg-Trp-Cys)] , thanks.
Output: 104%

Input: Need Emax of CC(=O)N[C@H]1CSSC[C@@H](C(N)=O)NC(=O)[C@H](Cc2ccccc2)NC(=O)[C@H](CCCNC(=N)N)NC(=O)[C@@H](Cc2ccccc2)NC(=O)[C@H](CCCNC(N)=O)NC(=O)C(C)(C)NC1=O [CTX-1636, cyclo(Cys-Aib-Cit-D-Phe-Arg-Phe-Cys)] (Ac-C[Aib][Cit][dF]RFC-NH2; disulfide 1-7 (inferred)) , thanks.
Output: 102%
